Tested on: LPS-induced TNFα in monocytes
Experiment: Monocytes assay: LPS-triggered TNFα (ELISA)
Format: cell-based, human
Conditions: Homo sapiens, Monocyte, LPS-triggered TNFα inhibition
Below, each of the compounds is paired with its reported EC50 value.

Examples with their reported EC50 follow.
# Compound, Measurement target, EC50
records = [
    ("COc1cc(-c2cnc3cc(C(C)(C)C#N)ccn23)cc(OC(F)F)c1C(=O)NCC1CC1", "LPS-induced TNFα in monocytes", "100 to 1000 nM"),
    ("COc1cn2c(-c3cc(OC)c(C(=O)NC4CC4)c(OC(F)F)c3)cnc2cc1C1CCOCC1", "LPS-induced TNFα in monocytes", "1000 to 5000 nM"),
    ("COc1cc(-c2cnc3cc(C(C)(O)CC#N)ccn23)cc(OC(F)F)c1C(=O)NC1CC1 (centres unmarked)", "LPS-induced TNFα in monocytes", "0.1 to 100 nM"),
]

query: Short answer please: EC50, LPS-induced TNFα in monocytes, entry COc1cc(-c2cnn3cc(C4(C#N)CCOCC4)ccc23)cc(OC(F)F)c1C(=O)N[C@@H]1C[C@@H]1F
result: 100 to 1000 nM

query: Another: COc1cc(-c2cnc3cc(C4(C#N)COC4)ccn23)cc(OC(F)F)c1C(=O)NC1CC1
result: 100 to 1000 nM

query: Follow-up entry: COc1cc(-c2cnn3cc(C(C)(C)CO)ccc23)cc(OC(F)F)c1C(=O)NC1CC1
result: 100 to 1000 nM

query: Next record, please: COc1cc(-c2cnc3cc(C4CCCN4)ccn23)cc(OC(F)F)c1C(=O)NC1CC1 (centres unmarked)
result: 100 to 1000 nM

query: What do you have for COc1cc(-c2cnc3cc(C4CCC4)c(F)cn23)cc(OC(F)F)c1C(=O)NC1CC1 ?
result: 100 to 1000 nM

---

# key: entry, value: EC50
Tested on: LPS-induced TNFα in monocytes
Assay: Monocytes assay: LPS-triggered TNFα (ELISA)
Format: cell-based, human
Conditions: Homo sapiens, Monocyte, LPS-triggered TNFα inhibition

query: Value lookup for EC50; key = COc1cc(-c2cnc3cc(C(F)(F)CO)ccn23)cc(OC(F)F)c1C(=O)NC1CC1 [Cpd 136]
result: 100 to 1000 nM

query: Queued: COc1cc(-c2cnn3cc(C(C)(C)OCCN4CCOCC4)ccc23)cc(OC(F)F)c1C(=O)N[C@@H]1C[C@@H]1F [Cpd 255]
result: 100 to 1000 nM

query: Please do the same for COc1cc(-c2cnn3cc(C(C)(C)CO)ccc23)cc(OC(F)F)c1C(=O)N[C@@H]1C[C@@H]1F [Cpd 242] as well.
result: 0.1 to 100 nM

query: Please answer likewise for CC[C@](C)(O)c1ccn2c(-c3cc(OC)c(C(=O)NC4CC4)c(OC(F)F)c3)cnc2c1 (single isomer, unassigned) [Cpd 164]
result: 100 to 1000 nM

query: Next compound: COc1cc(-c2cnc3cc(C(C)(O)CN4CC(F)(F)C4)ccn23)cc(OC(F)F)c1C(=O)NC1CC1 (stereo not shown) [Cpd 191]
result: 1000 to 5000 nM

query: Proceed to COc1cc(-c2cnc3cc(C(C)(C)C#N)ccn23)cc(OC)c1C(=O)NC1CC1 [Cpd 28]
result: 100 to 1000 nM

query: Ok, now COc1cc(-c2cnn3cc(C(C)(C)C#N)ccc23)cc(OC)c1C(=O)N[C@@H]1C[C@@H]1F [Cpd 245]
result: 100 to 1000 nM
